Source: patent US20250361243A1

Each entry below lists one item and its recorded EC50 value.
Test system: ss Mouse RBC
assayNotes: Imaging-based anti-sickling assay, ss mouse RBC
Format: cell-based
assayContext: read-out: Anti-sickling activity (EC50; μM) ss Mouse RBC

INSERT INTO results (compound, valuetype, reading) VALUES
  ('O=C1C=CC(=O)N1c1ccc(Br)cc1Cl [HDYB-6]', 'EC50', '20 µM'),
  ('O=C1C(=O)N(Cc2ccc(C(F)(F)F)cc2)c2ccc(Cl)cc21 [HDYB-20]', 'EC50', '22 µM'),
  ('O=C1OCc2ccc(N3C(=O)C=CC3=O)cc21 [HDYB-27]', 'EC50', '10 µM'),
  ('O=C1C=CC(=O)N1CCCCN1C(=O)C=CC1=O [HDYB-9]', 'EC50', '29 µM'),
  ('O=C1C=CC(=O)N1c1ccc2c(c1)CCO2 [HDYB-26]', 'EC50', '9 µM'),
  ('Cc1ccc(N2C(=O)C=CC2=O)nc1 [HDYB-16]', 'EC50', '< 100 µM');

Give the reported EC50 for this compound. O=C1C=CC(=O)N1c1cc(Cl)c(N2C(=O)C=CC2=O)cc1Cl [HDYB-25]
10 µM

Give the reported EC50 for this compound. O=C1C(=O)N(Cc2ccccc2)c2ccc(Cl)cc21 [HDYB-19]
27 µM

Give the reported EC50 for this compound. O=C1C=CC(=O)N1c1ccc(-c2ccccc2)cc1 [HDYB-23]
68 µM

Give the reported EC50 for this compound. O=C1C=CC(=O)N1c1ccccc1 [HDYB-5, 1-phenyl-1H-pyrrole-2,5-dione]
21 µM

Give the reported EC50 for this compound. O=C1C=CC(=O)N1c1cccc(C(F)(F)F)c1 [HDYB-3]
12 µM

Give the reported EC50 for this compound. Cc1ccc(Cl)cc1N1C(=O)C=CC1=O [HDYB-12]
16 µM

Give the reported EC50 for this compound. O=C1C=C(Nc2ccccc2)C(=O)N1c1ccccc1 [HDYB-11]
< 100 µM

Give the reported EC50 for this compound. Cc1ccc(N2C(=O)C=CC2=O)cc1 [HDYB-21, 1-(p-tolyl)-1H-pyrrole-2,5-dione]
37 µM

Give the reported EC50 for this compound. Cc1cc(Cl)cc(-c2ccccc2)c1N1C(=O)C=CC1=O [HDYB-8]
< 100 µM

====

System: Human RBC
assayNotes: Imaging-based anti-sickling assay, human RBC
Format: cell-based
assayContext: Homo sapiens; read-out: Anti-sickling activity (EC50; μM) Human RBC
Each entry below lists one item and its recorded EC50 value.
Number only, in µM; omit the unit.

# annotated cases, reported EC50 shown
INSERT INTO results (smilestext, valuetype, unitofmeasure, reading) VALUES
  ('O=C1C=CC(=O)N1c1ccc(Br)cc1Cl', 'EC50', 'µM', 12),
  ('O=C1C(=O)N(Cc2ccccc2)c2ccc(Cl)cc21', 'EC50', 'µM', 25);

Provide EC50, tested on Human RBC, for O=C1C=CC(=O)N1c1cccc(F)c1 .
14

Provide EC50, tested on Human RBC, for O=C1C=CC(=O)N1c1ccc(I)cc1 .
41

Provide EC50, tested on Human RBC, for O=C1C=CC(=O)N1c1cccc(C(F)(F)F)c1 .
12

Provide EC50, tested on Human RBC, for O=C1OCc2ccc(N3C(=O)C=CC3=O)cc21 .
11

Provide EC50, tested on Human RBC, for O=C1C=CC(=O)N1CCCCN1C(=O)C=CC1=O .
78

Provide EC50, tested on Human RBC, for Cc1ccc(N2C(=O)C=CC2=O)cc1 .
32

Provide EC50, tested on Human RBC, for O=C1C=CC(=O)N1c1cc(Cl)c(N2C(=O)C=CC2=O)cc1Cl .
12

Provide EC50, tested on Human RBC, for O=C1C=CC(=O)N1c1ccc2c(c1)CCO2 .
13

Provide EC50, tested on Human RBC, for O=C1C=CC(=O)N1c1cccc(Cl)c1 .
6.3

Provide EC50, tested on Human RBC, for O=C1C(=O)N(Cc2ccc(C(F)(F)F)cc2)c2ccc(Cl)cc21 .
26

Provide EC50, tested on Human RBC, for Cc1ccc(Cl)cc1N1C(=O)C=CC1=O .
12

Provide EC50, tested on Human RBC, for Cc1ccc(N2C(=O)C=CC2=O)cc1Cl .
19

Provide EC50, tested on Human RBC, for O=C1C=CC(=O)N1c1ccccc1 .
17

Provide EC50, tested on Human RBC, for O=C1C=CC(=O)N1c1cccc(N2C(=O)C=CC2=O)c1 .
57

Provide EC50, tested on Human RBC, for O=C1C=CC(=O)N1c1ccc(Br)c(Cl)c1 .
23

====

Each entry below lists one item and its recorded EC50 value.
System: ss Mouse RBC
assayNotes: Imaging-based anti-sickling assay, ss mouse RBC
Format: cell-based
assayContext: read-out: Anti-sickling activity (EC50; μM) ss Mouse RBC
Number only, in µM; omit the unit.

INSERT INTO results (smilestext, valuetype, unitofmeasure, reading) VALUES
  ('O=C1C=CC(=O)N1c1cccc(F)c1', 'EC50', 'µM', 11),
  ('O=C1C=CC(=O)N1c1ccc(I)cc1', 'EC50', 'µM', 13),
  ('O=C1C=CC(=O)N1c1cccc(N2C(=O)C=CC2=O)c1', 'EC50', 'µM', 78),
  ('O=C1C=CC(=O)N1c1cccc(Cl)c1', 'EC50', 'µM', 5),
  ('Cc1ccc(N2C(=O)C=CC2=O)cc1Cl', 'EC50', 'µM', 15);

Now examine the next entry.
Give the reported EC50 for this molecule. O=C1C=CC(=O)N1c1ccc(Br)c(Cl)c1
27
